- System: T1, human hippocampal Y5 receptor (human)
- T1 chain: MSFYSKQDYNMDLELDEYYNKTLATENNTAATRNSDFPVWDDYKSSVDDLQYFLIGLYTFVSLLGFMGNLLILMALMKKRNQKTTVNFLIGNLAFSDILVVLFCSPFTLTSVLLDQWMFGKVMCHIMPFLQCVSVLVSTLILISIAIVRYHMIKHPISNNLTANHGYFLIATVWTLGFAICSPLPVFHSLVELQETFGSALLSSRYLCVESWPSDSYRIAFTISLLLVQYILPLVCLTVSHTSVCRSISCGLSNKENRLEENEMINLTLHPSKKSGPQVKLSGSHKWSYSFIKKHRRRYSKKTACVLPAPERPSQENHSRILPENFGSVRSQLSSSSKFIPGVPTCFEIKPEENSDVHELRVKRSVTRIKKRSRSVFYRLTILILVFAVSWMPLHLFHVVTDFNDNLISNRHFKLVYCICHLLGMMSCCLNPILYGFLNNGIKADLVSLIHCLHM
- Assay info: 125I-PYY displacement, COS-7 membranes
pKi: −log10 of the molar value. Ends that are not written are not given here.
Task for the reader: assign each of the following binders its reported pKi.

## Input Give pKi for ARYYSALRHYINLITRQRY (ends and bridges not checked) [porcine NPY18-36]
## Output < 6.33

## Input Give pKi for PLEPVY [human PP31-36]
## Output < 5.00

## Input Give pKi for SALRHYINLITRQRY (ends and bridges not checked) [porcine NPY22-36]
## Output < 6.00
